System: Akt phosphorylation induced by IGF-1R
Assay: Western blot analysis of Akt phosphorylation induced by IGF-1 in HT-29 cells
Assay type: cell-based, Human
Conditions: 100 nM; Table B2 lower part
Provide the recorded p-AKT relative to levels with 0.1 nM compound for the entries that follow.
Numbers only.

Completed entries (count: 5):
> print(dat)
                                   molecule  measured.result
1  O=C(Nc1ccc(F)nc1)C1C(O)CCN1c1nc2c(c(Nc3cc(C4CC4)[nH]n3)n1)CCC2 (single isomer, unassigned) [Compound 11b]              0.2
2  O=C(Nc1ccc(F)nc1)C1CCCCN1c1nc2c(c(Nc3cc(C4CC4)[nH]n3)n1)CCC2 (racemic) [Compound 9]              0.0
3  O=C(Nc1ccc(F)nc1)[C@H]1[C@@H](O)CCN1c1nc2c(c(Nc3cc(C4CC4)[nH]n3)n1)CCC2 (single isomer, unassigned) [Compound 11a]              0.9
4  O=C(Nc1cncnc1)C1CCCN1c1nc2c(c(Nc3cc(C4CC4)[nH]n3)n1)CCC2 (racemic) [Compound 7]              0.8
5  O=C(Nc1ccc(F)nc1)C1CC(O)CN1c1nc2c(c(Nc3cc(C4CC4)[nH]n3)n1)CCC2 (racemic) [Compound 10b]              0.8

Note: attention shifts to another entry.
Param item = O=C(Nc1cccnc1)C1CCCN1c1nc2c(c(Nc3cc(C4CC4)[nH]n3)n1)CCC2 (single isomer, unassigned) [Compound 3b] ; retrieve measured p-AKT relative to levels with 0.1 nM compound.
0.0

* * *

Tested on: Akt phosphorylation induced by IGF-1R
Assay: Western blot analysis of Akt phosphorylation induced by IGF-1 in HT-29 cells
Format: cell-based, Human
Details: 0.1 nM compound, HT-29 cells, IGF-1
Provide the recorded Levels of phosphorylated AKT in treated cells (pAKT/actin) for the entries that follow.
One number for each entry.

Completed entries (count: 2):
> print(dat)
                                   molecule  measured.result
1  O=C(Nc1cccnc1)C1CCCN1c1nc2c(c(Nc3cc(C4CC4)[nH]n3)n1)CCC2 (single isomer, unassigned) [Compound 3b]             2.25
2  O=C(Nc1cncnc1)C1CCCN1c1nc2c(c(Nc3cc(C4CC4)[nH]n3)n1)CCC2 (racemic) [Compound 7]             1.45

Note: attention shifts to another entry.
Param item = O=C(Nc1ccc(F)nc1)C1CCCCN1c1nc2c(c(Nc3cc(C4CC4)[nH]n3)n1)CCC2 (single isomer, unassigned) [Compound 9b] ; retrieve measured Levels of phosphorylated AKT in treated cells (pAKT/actin).
1.46

* * *

System: Akt phosphorylation induced by IGF-1R
Assay: Western blot analysis of Akt phosphorylation induced by IGF-1 in HT-29 cells
Assay type: cell-based, Human
Details: 1 nM compound, HT-29 cells, IGF-1
Method: Inhibition of Akt phosphorylation induced by IGF-1R was studied by western blot analysis. Human colon carcinoma HT-29 cells were seeded at a density of 8×10^4 cells/well in a 24-well plate and grown in DME/F12 media containing 10% FBS for 24 h. […] Lysed cells were centrifuged at 13,000 rpm for 15 min and the protein concentration soluble fraction (supernatant) of each sample was determined using a BCA protein assay (Pierce).
# label = Criterion met if Levels of phosphorylated AKT in treated cells (pAKT/actin) < 0.6 else Criterion not met

Identify whether the compound O=C(Nc1ccc(F)nc1)C1CCCCN1c1nc2c(c(Nc3cc(C4CC4)[nH]n3)n1)CCC2 (racemic) [Compound 9] records Levels of phosphorylated AKT in treated cells (pAKT/actin) below 0.6.
Criterion not met

Identify whether the compound CC(C)c1cc(Nc2nc(N3CCCCC3C(=O)Nc3ccc(F)nc3)nc3c2CCC3)n[nH]1 (single isomer, unassigned) [Compound 16a] records Levels of phosphorylated AKT in treated cells (pAKT/actin) below 0.6.
Criterion not met

Identify whether the compound O=C(Nc1ccc(F)nc1)C1CCCN1c1nc2c(c(Nc3cc(C4CC4)[nH]n3)n1)CCCC2 (single isomer, unassigned) [Compound 14b] records Levels of phosphorylated AKT in treated cells (pAKT/actin) below 0.6.
Criterion met

Identify whether the compound CC(C)c1cc(Nc2nc(N3CCCC3C(=O)Nc3ccc(F)nc3)nc3c2CCCC3)n[nH]1 (single isomer, unassigned) [Compound 13a] records Levels of phosphorylated AKT in treated cells (pAKT/actin) below 0.6.
Criterion met

Identify whether the compound O=C(Nc1ccc(F)nc1)C1CCCCN1c1nc2c(c(Nc3cc(C4CCCC4)[nH]n3)n1)CCC2 (single isomer, unassigned) [Compound 17a] records Levels of phosphorylated AKT in treated cells (pAKT/actin) below 0.6.
Criterion not met

Identify whether the compound O=C(Nc1cnccn1)C1CCCN1c1nc2c(c(Nc3cc(C4CC4)[nH]n3)n1)CCC2 (racemic) [Compound 6] records Levels of phosphorylated AKT in treated cells (pAKT/actin) below 0.6.
Criterion met

* * *

System: Akt phosphorylation induced by IGF-1R
Assay: Western blot analysis of Akt phosphorylation induced by IGF-1 in HT-29 cells
Format: cell-based, Human
Conditions: 10 nM; derivatives of Cpd. No. 8b
readout-type: pAKT relative to 0.1 nM compound
Answers are plain numbers.

Completed entries (count: 3):
> print(dat)
                                   compound                          tested.target  measured.result
1  CC(C)c1cc(Nc2nc(N3CCCC3C(=O)Nc3ccc(F)nc3)nc3c2CCCC3)n[nH]1 (single isomer, unassigned) [Compound 13b]  Akt phosphorylation induced by IGF-1R             0.04
2  O=C(Nc1ccc(F)nc1)C1CC(O)CN1c1nc2c(c(Nc3cc(C4CC4)[nH]n3)n1)CCC2 (racemic) [Compound 10a]  Akt phosphorylation induced by IGF-1R             0.16
3  O=C(Nc1cnccn1)C1CCCN1c1nc2c(c(Nc3cc(C4CC4)[nH]n3)n1)CCC2 (single isomer, unassigned)  Akt phosphorylation induced by IGF-1R             0.02

Note: attention shifts to another entry.
Param item = O=C(Nc1ccc(F)nc1)C1CC(O)CN1c1nc2c(c(Nc3cc(C4CC4)[nH]n3)n1)CCC2 (racemic) [Compound 10d] ; retrieve measured pAKT relative to 0.1 nM compound.
0.23

* * *

System: HCT-116
Test: Cell Titer-Glo cell viability: HCT-116
Assay type: cell-based
Settings: Homo sapiens, Table B16, colon carcinoma, read-out: IC50 cell viability HCT116
readout-type: pIC50
Numbers only, as −log10 of the molar value.

Param item = O=C(Nc1ccc(F)nc1)C1CCCN1c1nc2c(c(Nc3cc(C4CC4)[nH]n3)n1)CCC2 (single isomer, unassigned) [Compound 2b] ; retrieve measured pIC50.
6.00

* * *

Target: IGF-1R (Homo sapiens, UniProt P08069)
Construct: purchased Millipore 14-802
Sequence (P08069 31-1367): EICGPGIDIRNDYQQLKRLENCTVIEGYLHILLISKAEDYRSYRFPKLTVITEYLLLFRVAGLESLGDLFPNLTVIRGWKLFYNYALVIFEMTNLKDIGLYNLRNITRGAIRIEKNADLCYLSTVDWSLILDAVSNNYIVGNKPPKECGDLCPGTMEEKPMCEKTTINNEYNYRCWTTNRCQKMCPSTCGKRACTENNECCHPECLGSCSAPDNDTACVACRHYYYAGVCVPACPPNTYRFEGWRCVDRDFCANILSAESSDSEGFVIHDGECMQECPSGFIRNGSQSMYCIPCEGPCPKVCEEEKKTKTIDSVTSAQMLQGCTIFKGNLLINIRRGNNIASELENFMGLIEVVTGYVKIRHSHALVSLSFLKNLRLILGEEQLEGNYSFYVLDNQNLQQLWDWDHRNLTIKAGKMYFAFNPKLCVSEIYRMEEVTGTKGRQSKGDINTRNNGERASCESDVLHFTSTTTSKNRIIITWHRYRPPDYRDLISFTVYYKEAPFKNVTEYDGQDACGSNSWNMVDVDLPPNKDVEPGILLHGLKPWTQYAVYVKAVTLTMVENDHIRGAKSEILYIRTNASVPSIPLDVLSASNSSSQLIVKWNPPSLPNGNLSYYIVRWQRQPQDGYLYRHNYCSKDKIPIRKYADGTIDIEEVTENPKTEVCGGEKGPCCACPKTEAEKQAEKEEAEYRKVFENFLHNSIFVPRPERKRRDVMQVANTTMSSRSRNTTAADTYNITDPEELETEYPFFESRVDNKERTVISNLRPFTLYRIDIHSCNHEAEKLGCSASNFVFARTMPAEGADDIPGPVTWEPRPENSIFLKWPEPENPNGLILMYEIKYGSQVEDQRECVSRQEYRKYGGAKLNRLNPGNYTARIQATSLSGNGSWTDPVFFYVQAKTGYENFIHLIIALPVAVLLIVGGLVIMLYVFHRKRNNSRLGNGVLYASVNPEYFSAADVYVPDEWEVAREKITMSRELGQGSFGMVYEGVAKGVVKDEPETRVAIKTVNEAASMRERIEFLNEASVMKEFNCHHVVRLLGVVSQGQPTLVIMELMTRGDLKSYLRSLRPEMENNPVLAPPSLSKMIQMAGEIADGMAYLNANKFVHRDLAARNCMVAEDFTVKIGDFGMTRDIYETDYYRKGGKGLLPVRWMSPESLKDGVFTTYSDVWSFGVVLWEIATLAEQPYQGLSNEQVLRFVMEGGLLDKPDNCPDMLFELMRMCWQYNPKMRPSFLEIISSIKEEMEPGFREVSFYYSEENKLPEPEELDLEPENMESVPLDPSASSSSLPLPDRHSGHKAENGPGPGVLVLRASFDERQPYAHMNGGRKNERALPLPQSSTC
Test: In vitro IGF-1R enzymatic assay (ADP-Glo kinase assay)
Type: biochemical
Details: activated IGF-1R
Method: IC50 values of the compounds of the invention against IGF-1R and IR were measured in vitro using an ADP-Glo kinase assay Kit (Promega). […] Kinase reactions in both assays were conducted at 30° C. for 20 min with increasing concentrations of compounds of the invention. Additional compounds of the invention were screened against activated IGF-1R.
readout-type: IC50 (nM)
Give bare numbers, in nM.

Completed entries (count: 3):
> print(dat)
                                   compound                          tested.target  readout.type  measured.result
1  O=C(Nc1ccc(F)nc1)C1CC(O)CN1c1nc2c(c(Nc3cc(C4CC4)[nH]n3)n1)CCC2 (racemic) [Compound 10a]  IGF-1R (Homo sapiens, UniProt P08069)          IC50               33
2  CC(C)c1cc(Nc2nc(N3CCCC3C(=O)Nc3ccc(F)nc3)nc3c2CCC3)n[nH]1 (single isomer, unassigned)  IGF-1R (Homo sapiens, UniProt P08069)          IC50              6.7
3  CC(C)c1cc(Nc2nc(N3CCCC3C(=O)N(C)C)nc3c2CCC3)n[nH]1 (single isomer, unassigned) [Compound 20b]  IGF-1R (Homo sapiens, UniProt P08069)          IC50             3200

Quick batch: IC50 for everything below.
1. CC(C)c1cc(Nc2nc(N3CC(O)CC3C(=O)Nc3ccc(F)nc3)nc3c2CCC3)n[nH]1 (racemic)
2. CC(C)c1cc(Nc2nc(N3CCCC3C(=O)N3CCCCC3)nc3c2CCC3)n[nH]1 (centres unmarked) [Compound 73b]

1. 22
2. 1400
